- assayed.system: 5-LO (Homo sapiens)
- Construct: incubating a test compound with heparinised human blood, prior to challenge with the calcium ionophore A23187; endogenous in cells
- Sequence (P09917 whole entry): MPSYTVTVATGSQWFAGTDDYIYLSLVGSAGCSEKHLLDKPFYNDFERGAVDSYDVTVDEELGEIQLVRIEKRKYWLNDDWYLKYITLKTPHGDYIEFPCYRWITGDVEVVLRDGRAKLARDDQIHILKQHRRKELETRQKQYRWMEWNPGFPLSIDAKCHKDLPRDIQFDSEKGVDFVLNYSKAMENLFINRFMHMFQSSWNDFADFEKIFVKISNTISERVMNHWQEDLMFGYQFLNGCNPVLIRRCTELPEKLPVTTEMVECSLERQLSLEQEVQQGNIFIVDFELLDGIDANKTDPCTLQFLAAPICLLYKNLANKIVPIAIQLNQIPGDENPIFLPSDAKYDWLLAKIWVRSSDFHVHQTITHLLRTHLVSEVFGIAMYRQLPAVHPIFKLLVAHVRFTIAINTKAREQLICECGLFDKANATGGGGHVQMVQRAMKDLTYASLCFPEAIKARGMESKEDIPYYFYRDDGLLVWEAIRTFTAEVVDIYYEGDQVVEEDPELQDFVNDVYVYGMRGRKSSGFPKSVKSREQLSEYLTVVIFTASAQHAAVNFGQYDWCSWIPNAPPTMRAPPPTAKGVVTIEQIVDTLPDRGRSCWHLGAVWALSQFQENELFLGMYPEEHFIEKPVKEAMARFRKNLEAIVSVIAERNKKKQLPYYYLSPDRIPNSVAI
- method: Test a): in vitro heparinised human blood challenged with calcium ionophore A23187, radioimmunoassay of LTB₄
- test.conditions: A23187 challenge, read-out: IC₅₀ (LTB₄)
reported.property: IC50 (nM)
API: value field is a number in nM; no unit string.

Query: State the recorded IC50 for this entry: "CC(=O)N(C)c1ccc(Sc2ncc([C@@]3(C)COC(C)(C)O3)s2)cc1"
Reply: 70
